Quick list: inhibition per entry.
- assay-notes: NALP3 inhibitors retested in yeast, confirmation, luminescence, single concentration (AID 435006)
- applied-conditions: yeast expressing human NALP3, luminescence; at 10 µM; hits give high values
Hit rate of the full screen: of about 1,300 compounds, about 1,100 (85%) were called active. So high a share suggests a set chosen from earlier hits. The list is a sample of the results.
Give your result in % as a bare value.

Known inhibition results, listed for orientation:
Cc1ccc(-c2nc3ccccc3c(=O)n2-c2ccc(Br)cn2)cc1 | 73.3
C[C@]12CCC3C(CC[C@H]4C[C@@H](O)CC[C@]34C)C1C[C@@H](O)[C@H]2O (some centres undefined) | 53
Cc1cc2ccccn2c1C(C[N+](=O)[O-])c1c(F)cccc1Cl (centres undefined) | 72.8

Note: attention shifts to another entry.
Give the value of inhibition reported for the following: C[C@]12CCC3C(CC[C@H]4C[C@@H](O)CC[C@]34C)C1CC[C@@H]2O (some centres undefined)
57.9
